system: cardiomyocytes isolated from mouse heart; test: Inhibition of unstimulated calcium release events in cardiomyocytes (isoproterenol-induced); format: cell-based, C57BL/6 mice; details: Cardiomyocyte, 10 μM compound, isoproterenol 1 uM, percent inhibition of controls B vs A
# inhibition at 10 µM listing for each entry below
ENDPOINT NAME: inhibition at 10 µM (%)

[[record]]
entry_smiles = "O=C(N1CCNCC1)N1CCSc2cccc(I)c2C1"
measured_on = "cardiomyocytes isolated from mouse heart"
readout_unit = "%"
value_measured = 74

[[record]]
entry_smiles = "O=C(N1CCNCC1)N1CCSc2cccc(C(F)(F)F)c2C1"
measured_on = "cardiomyocytes isolated from mouse heart"
readout_unit = "%"
value_measured = 92

[[record]]
entry_smiles = "O=C(N1CCNCC1)N1CCSc2cccc(Br)c2C1"
measured_on = "cardiomyocytes isolated from mouse heart"
readout_unit = "%"
value_measured = 89

[[record]]
entry_smiles = "O=C(N1CCNCC1)N1CCSc2cccc(Cl)c2C1"
measured_on = "cardiomyocytes isolated from mouse heart"
readout_unit = "%"
value_measured = 89

[[record]]
entry_smiles = "O=C(N1CCNCC1)N1CCSc2cccc(OC(F)(F)F)c2C1"
measured_on = "cardiomyocytes isolated from mouse heart"
readout_unit = "%"
value_measured = 80

[[record]]
entry_smiles = "O=C(N1CCNCC1)N1CCSc2ccc(OC(F)(F)F)cc2C1"
measured_on = "cardiomyocytes isolated from mouse heart"
readout_unit = "%"
value_measured = 142

[[record]]
entry_smiles = "O=C(N1CCNCC1)N1CCSc2cc(F)c(F)cc2C1"
measured_on = "cardiomyocytes isolated from mouse heart"
readout_unit = "%"
value_measured = 71

[[record]]
entry_smiles = "O=C(N1CCNCC1)N1CCSc2c(cccc2C(F)(F)F)C1"
measured_on = "cardiomyocytes isolated from mouse heart"
readout_unit = "%"
value_measured = 85


----------
test: Pharmacokinetics by intravenous (IV) dosing (tail vein); type: in vivo, rat; details: rat plasma, IV bolus 2 mg/kg, 30 min; read-out: C 1st time (30 min)
ENDPOINT NAME: concentration at 30 min

[[record]]
entry_smiles = "O=C(N1CCNCC1)N1CCSc2ccc(C(F)(F)F)cc2C1"
value_measured = "180 ng/mL"


----------
assay: Oral bioavailability and pharmacokinetics in blood plasma after oral gavage; assay type: in vivo, Sprague-Dawley rats; settings: Sprague-Dawley; rat plasma, PO 20 mg/kg
ENDPOINT NAME: Tmax (h)

[[record]]
molecule = "O=C(N1CCNCC1)N1CCSc2ccc(C(F)(F)F)cc2C1 [Compound 2]"
endpoint_name = "Tmax"
readout_unit = "h"
value_measured = 4

